Assay: promoters of myeloid differentiation in arrested cells, primary screen, cell-based, GFP/MAC1 double positive, flow cytometry, validation set (AID 588685);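 note: compound exposure lasts four days before antibody staining and flow analysis; 0% = DMSO wells and 100% = 5 µM fulvestrant positive control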
Settings: ER-HoxA9 marrow cells, stronger effect = higher value, normalized: vehicle 0, fulvestrant 100
readout-label: differentiation response (%)
Please state the figure in %; there is no need to write the unit.

[
  {
    "molecule": "CCC12CN3CC(CC)(CN(C1)C31C(=O)N(C)c3ccc(C)cc31)C2=O (stereo unspecified)",
    "measured-result": -10.9
  },
  {
    "molecule": "O=C(/C=C/c1ccc2c(c1)OCO2)c1ccccn1",
    "measured-result": -5.97
  }
]

Note to self: differentiation response recorded for `NC(=O)c1c(-c2ccccc2)oc2ccc(O)cc12` was -13.1

differentiation response for CC12CCC(C(=O)Nc3ccccc3Br)(C/C1=N\O)C2(C)C (stereo unspecified) is -9.89

Given item `CC(=O)CCc1oc2ccccc2c1-c1ccccc1` , the value recorded as its differentiation response is -1.05

###

Assay: RPL19A-GFP modulators, yeast TOR pathway, confirmation, cell-based, S. cerevisiae, flow cytometry, cherry picks, mother/daughter gates (AID 2270)
Conditions: S. cerevisiae RPL19A-GFP strain, 3 h, measured here: mother cell gate, at 10 µM, stronger effect = lower value, 100 = same GFP as DMSO wells
readout-label: GFP response vs DMSO (%)
Write down the numeric answer in % and omit the unit.

[
  {
    "compound": "O=C(CSCc1cccc(Br)c1)N=Nc1c(O)[nH]c2ccccc12",
    "unit-of-measurement": "%",
    "GFP response vs DMSO": 73
  },
  {
    "compound": "Cc1ccc(S(=O)(=O)N(Cc2ccc(F)cc2)Cc2ccco2)cc1",
    "unit-of-measurement": "%",
    "GFP response vs DMSO": 97.7
  },
  {
    "compound": "Cc1cccn2c(=O)c(/C=C(\\C#N)C(=O)NC3CCS(=O)(=O)C3)c(N3CCC(C)CC3)nc12 (stereo not given)",
    "unit-of-measurement": "%",
    "GFP response vs DMSO": 102
  }
]

GFP response vs DMSO in this record for `O=c1c2c(-c3cccs3)csc2ncn1/N=C/c1ccccn1` : 96.5

Reported GFP response vs DMSO for `O=C(O)c1ccc(N/N=C/c2c(F)cccc2Cl)cc1` was 98.1

Note to self: GFP response vs DMSO recorded for `O=[N+]([O-])c1cnc(Sc2ccncn2)s1` was 99.2

Consider `CCN(Cc1ccccc1)S(=O)(=O)c1ccc(C(=O)Nc2nnc(-c3ccccc3OC)o2)cc1` . Its measured GFP response vs DMSO is 98.4

So for `O=C(C1CCN(Cc2nc(Cc3cccc(F)c3)no2)CC1)N1CCOCC1` , the logged GFP response vs DMSO turned out to be 99.8

Just so you know, measured GFP response vs DMSO for `COc1ccc(N2CCN(C(=O)CCc3nnc4ccc(N5CCCC5)nn34)CC2)cc1` came out at 101

For this compound ( `Cc1cc(C=C2C(=O)c3ccccc3C2=O)c(C)n1-c1cccc(C(=O)O)c1` ), measured GFP response vs DMSO is 101

###

Test: RPL19A-GFP modulators, yeast TOR pathway, confirmation, cell-based, S. cerevisiae, flow cytometry, cherry picks, mother/daughter gates (AID 2270)
Details: S. cerevisiae RPL19A-GFP strain, 3 h, measured here: daughter cell gate, at 10 µM, stronger effect = lower value, 100 = same GFP as DMSO wells
readout-label: GFP response vs DMSO (%)
// return numeric value only (unit: %, not printed)

Check out these entries, answers already filled in.
[
  {
    "compound": "COc1cc(/C=C2\\C(=O)ON=C2c2ccc(Cl)cc2)ccc1O",
    "GFP response vs DMSO (%)": 106
  },
  {
    "compound": "Cc1ccc(-c2nc(NC(=O)c3nn(C)cc3[N+](=O)[O-])sc2C)cc1",
    "GFP response vs DMSO (%)": 97.3
  },
  {
    "compound": "Cc1ccc(/C=C2/SC(=S)N(C3CCCCC3)C2=O)o1",
    "GFP response vs DMSO (%)": 100
  },
  {
    "compound": "O=C(O)CSC1CC(=O)N(c2cccc(Cl)c2)C1=O (centres undefined)",
    "GFP response vs DMSO (%)": 97.3
  }
]

The recorded GFP response vs DMSO for entry `O=C(Nc1ccccc1N1CCOCC1)c1ccc([N+](=O)[O-])o1` equals 82.8

Noted for `COc1ccccc1NC(=O)Cn1nnc(-c2ccccc2NC(=O)c2ccco2)n1` : its GFP response vs DMSO reads 96.1

Item: `Cc1c(Cc2ccccc2)c(NCCN(C)C)n2c(nc3ccccc32)c1C#N` | GFP response vs DMSO: 45.5

response.value for `COc1ccc(CNC(=O)c2c(O)c3ccccc3n(C)c2=O)cc1OC` (field: GFP response vs DMSO) = 97.8

GFP response vs DMSO measured on `CC(=O)Nc1cccc(Oc2ccc(-c3noc(C)n3)cc2)c1` = 93.4

The compound CS(=O)(=O)Nc1ccc(C2=NN(S(C)(=O)=O)C(c3ccccc3)C2)cc1 (centres undefined) showed GFP response vs DMSO equal to 98.1

###

Experiment: LAP4-GFP expression modulators in yeast, confirmation, cell-based, second cherry pick, flow cytometry (AID 2621);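 note: ratio of well median GFP fluorescence to plate DMSO mean so 100% = DMSO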
Conditions: S. cerevisiae LAP4-GFP strain, 3 h, at 10 µM, stronger effect = higher value
The list shows a part of the results.
Label y for high-side GFP response vs DMSO (at or above 200%) and n for low-side GFP response vs DMSO (below it).

[
  {
    "compound": "O=C(Nc1nnc(-c2ccc(Cl)cc2)o1)c1ccccc1Br",
    "group-label": "n"
  },
  {
    "compound": "COc1ccc(C2(C)ON(c3ccccc3C(F)(F)F)C2=O)cc1 (stereo unspecified)",
    "group-label": "n"
  }
]

[Q] Evaluate `CN(Cc1ccccc1)C(=O)C(=O)c1cn(CC(=O)N2CCCC2)c2ccccc12` : GFP response vs DMSO at minimum 200%?
[A] n

[Q] Kindly determine if GFP response vs DMSO recorded for O=C(NC(=S)NC1CCS(=O)(=O)C1)c1cccc([N+](=O)[O-])c1 (stereo unspecified) is above or exactly 200%.
[A] n

[Q] Decide: is the reported value of GFP response vs DMSO for CC(Oc1ccc2ccccc2c1)C(=O)NNC(=S)NC(=O)c1ccco1 (stereo unspecified) equal to or greater than 200%?
[A] y

###

Catalogue of GFP response, % of DMSO values
Test: modulators of CIT2-GFP expression in yeast, confirmation, S. cerevisiae, GFP fusion, cherry picks, mother/daughter gates (AID 2274)
Settings: S. cerevisiae CIT2-GFP strain, flow cytometry, 3 h; at 10 µM; stronger effect = higher value
Value expressed in %; do not type the unit.

Below: 2 compounds and their reported GFP response, % of DMSO.
[
  {
    "compound": "CCc1noc(C)c1C(=O)Nc1nc(-c2ccc(Cl)cc2Cl)cs1",
    "unit-of-measurement": "%",
    "measured-result": 94.4
  },
  {
    "compound": "COc1ccc(OC(=O)c2cc(S(=O)(=O)N3CCCC3)ccc2Cl)cc1",
    "unit-of-measurement": "%",
    "measured-result": 101
  }
]

Note to self: GFP response, % of DMSO recorded for COC(=O)NC1CCC(CC2CCC(NC(=O)OC)CC2)CC1 (stereo unspecified) was 103

GFP response, % of DMSO reading for `Cc1cc(NCCN2CCOCC2)n2nc(C)c(-c3ccc(Cl)cc3)c2n1` : 100

get_value(item= `CCOc1ccc(C(=O)/C=C/c2ccc(SC)cc2)cc1` , readout=GFP response, % of DMSO) returns 100

The compound identified as `COc1cc(NC(=O)C(C)C)ccc1NC(=O)c1cc2ccccc2o1` registered its GFP response, % of DMSO at 103

###

Test: modulators of MEP2-GFP levels in yeast, confirmation, S. cerevisiae, flow cytometry GFP, cherry picks (AID 2272);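 note: ratio of well signal to plate DMSO mean so 100% equals DMSO level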
Settings: S. cerevisiae MEP2-GFP strain, 3 h, at 10 µM, stronger effect = higher value
Consider the following compounds and their measured GFP response vs DMSO readings.
Give the number; % is assumed, so skip it.

[
  {
    "compound": "C=CCNC(=O)/C(C#N)=C/c1c(N(Cc2ccccc2)Cc2ccccc2)nc2ccccn2c1=O",
    "GFP response vs DMSO (%)": 103
  },
  {
    "compound": "COc1ccc(N2C(=O)C(Cl)=C(N(CCO)Cc3ccccc3)C2=O)cc1",
    "GFP response vs DMSO (%)": 101
  },
  {
    "compound": "CCOc1ccc(-c2noc(-c3cccnc3)n2)cc1OC",
    "GFP response vs DMSO (%)": 100
  }
]

What the record says about `CC(C)c1nnc(SCC(=O)N2CCc3ccccc32)n1C` : GFP response vs DMSO is 102

Per the record, `CSc1nc(N2CCN(c3ccccc3Cl)CC2)c2ccccc2n1` has GFP response vs DMSO of 110

GFP response vs DMSO reading for `CCNC(=O)/C(C#N)=C/c1c(N(Cc2ccccc2)Cc2ccccc2)nc2ccccn2c1=O` : 110

Value of measured GFP response vs DMSO for the entry C=CCN1C(=O)C2(C(C#N)=C(N)Oc3n[nH]c(CCC)c32)c2ccccc21 (configuration not stated) : 100
